# measured.target: G-protein coupled bile acid receptor 1 (Homo sapiens) (UniProt Q8TDU6)
# Sequence (Q8TDU6 whole entry): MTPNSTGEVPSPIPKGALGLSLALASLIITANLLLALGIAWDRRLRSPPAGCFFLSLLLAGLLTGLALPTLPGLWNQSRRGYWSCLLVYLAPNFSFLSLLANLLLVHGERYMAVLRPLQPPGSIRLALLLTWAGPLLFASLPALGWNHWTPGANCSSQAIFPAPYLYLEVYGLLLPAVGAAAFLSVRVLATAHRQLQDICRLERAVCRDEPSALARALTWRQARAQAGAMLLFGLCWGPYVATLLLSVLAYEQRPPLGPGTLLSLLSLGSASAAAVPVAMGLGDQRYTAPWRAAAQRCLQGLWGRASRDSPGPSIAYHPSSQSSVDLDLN
# run.description: Agonist activity at human TGR5 expressed in HEK293 cells at 10 uM incubated for 30 mins by SEAP reporter gene based assay relative to control
# Type: functional, cell-based
metric: Activity

Inquiry: Give G-protein coupled bile acid receptor 1 (Homo sapiens) (UniProt Q8TDU6) Activity for `C[C@H](CCCC(=O)O)[C@@H]1CC[C@@H]2[C@@H]1[C@H](C)C[C@H]1[C@H]2[C@H](O)C[C@@H]2C[C@H](O)CC[C@@]21C`
Reply text: 26%

Inquiry: Try the compound `C[C@H](CC(=O)O)[C@@H]1CC[C@@H]2[C@@H]1[C@H](C)C[C@H]1[C@H]2[C@H](O)C[C@@H]2C[C@H](O)CC[C@@]21C`
Reply text: 4%

Inquiry: Try the compound `C[C@@H]1C[C@H]2[C@H]([C@@H]3CC[C@@H]([C@H](C)C(=O)O)[C@H]31)[C@H](O)C[C@@H]1C[C@H](O)CC[C@@]12C`
Reply text: 4%
